Checkbox rule: logP lower than 2 = Fulfilled; logP not lower than 2 = Not fulfilled.

Some solved cases for reference:
INSERT INTO measurements (compound, discrete_label) VALUES
  ('O=Cc1cccc(Cl)c1', 'Not fulfilled'),
  ('Oc1ccc2cc(O)ccc2c1', 'Fulfilled'),
  ('Oc1cc2ccccc2cc1O', 'Not fulfilled');

Please state whether logP is below 2 for O=Cc1ccccc1Cl
Not fulfilled

Quick check: logP of O=C(CBr)c1ccccc1 under 2?
Not fulfilled

Decide: logP of CC(=O)c1ccccc1Br strictly below 2?
Not fulfilled

In the record for CC(=O)c1cccc(Cl)c1 , is logP less than 2?
Not fulfilled

Is logP of OCc1cccc2ccccc12 strictly below 2?
Not fulfilled

Record CC(=O)c1ccc(Br)cc1 : is its logP strictly below 2?
Not fulfilled

Regarding CC(O)c1ccc2ccccc2c1 (configuration not stated) , kindly confirm whether its logP is beneath 2.
Not fulfilled
